Biological target: EGFR (Homo sapiens, UniProt P00533)
Construct: purchased Carna Biosciences, Inc; host or cells: insect cell expression system
Sequence (P00533 25-1210): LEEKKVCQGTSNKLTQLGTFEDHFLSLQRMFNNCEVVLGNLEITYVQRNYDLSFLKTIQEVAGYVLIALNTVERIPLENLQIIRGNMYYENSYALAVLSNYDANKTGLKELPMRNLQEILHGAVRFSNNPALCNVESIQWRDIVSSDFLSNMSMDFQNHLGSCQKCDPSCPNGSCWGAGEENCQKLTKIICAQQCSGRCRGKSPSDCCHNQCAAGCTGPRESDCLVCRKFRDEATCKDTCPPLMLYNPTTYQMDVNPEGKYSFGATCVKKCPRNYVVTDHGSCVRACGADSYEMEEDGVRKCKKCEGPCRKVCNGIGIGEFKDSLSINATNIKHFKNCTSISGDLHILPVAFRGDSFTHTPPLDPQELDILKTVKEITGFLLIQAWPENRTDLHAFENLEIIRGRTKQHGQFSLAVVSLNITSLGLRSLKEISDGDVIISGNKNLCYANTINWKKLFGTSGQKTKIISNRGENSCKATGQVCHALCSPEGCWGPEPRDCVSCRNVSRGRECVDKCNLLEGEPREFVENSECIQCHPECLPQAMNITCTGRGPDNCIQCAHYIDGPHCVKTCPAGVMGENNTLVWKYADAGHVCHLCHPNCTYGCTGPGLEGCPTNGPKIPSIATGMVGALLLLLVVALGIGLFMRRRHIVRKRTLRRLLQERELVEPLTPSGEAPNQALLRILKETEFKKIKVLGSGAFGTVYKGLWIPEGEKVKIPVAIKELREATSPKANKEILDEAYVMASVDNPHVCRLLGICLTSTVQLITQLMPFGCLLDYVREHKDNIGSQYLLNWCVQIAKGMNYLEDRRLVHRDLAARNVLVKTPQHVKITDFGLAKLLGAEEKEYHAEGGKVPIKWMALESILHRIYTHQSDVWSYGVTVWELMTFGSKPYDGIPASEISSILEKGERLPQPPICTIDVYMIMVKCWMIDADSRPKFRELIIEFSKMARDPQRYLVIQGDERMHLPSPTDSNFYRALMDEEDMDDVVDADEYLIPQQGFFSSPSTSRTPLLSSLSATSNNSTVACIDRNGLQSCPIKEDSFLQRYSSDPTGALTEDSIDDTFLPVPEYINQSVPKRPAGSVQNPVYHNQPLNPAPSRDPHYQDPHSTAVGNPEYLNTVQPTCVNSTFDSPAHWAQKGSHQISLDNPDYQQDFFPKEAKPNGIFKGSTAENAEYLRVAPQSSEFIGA
Test: Enzyme inhibitory activity on EGFR (time resolution fluorescence, biotinylated poly-Glu-Tyr substrate)
Format: biochemical
Conditions: enzyme reaction at room temperature for 60 minutes
endpoint: IC50 (nM)

// below: answered compounds
compound: CC#C/C(=N\OCCN1CCOCC1)c1ccc2ncnc(Nc3ccc(OCc4ccccn4)c(Cl)c3)c2c1
endpoint.result: 23

compound: CC#C/C(=N\OCCNC[C@@H]1COC(=O)N1)c1ccc2ncnc(Nc3ccc4c(cnn4Cc4cccc(F)c4)c3)c2c1
endpoint.result: 17

compound: CC#C/C(=N\OCC(=O)NCCOS(C)(=O)=O)c1ccc2ncnc(Nc3ccc(OCc4cccc(F)c4)c(Cl)c3)c2c1
endpoint.result: 47

compound: CC#C/C(=N\OCCN1CCCC(O)C1)c1ccc2ncnc(Nc3ccc(OCc4ccccn4)c(Cl)c3)c2c1 (stereo not shown)
endpoint.result: 15

a = CC#C/C(=N\OCCN1CCC[C@@H]1CO)c1ccc2ncnc(Nc3ccc(OCc4ccccn4)c(Cl)c3)c2c1
b = CC#C/C(=N\OCC(=O)NCCN(C)C)c1ccc2ncnc(Nc3ccc(OCc4cccc(F)c4)c(Cl)c3)c2c1
c = CC#C/C(=N\OCCNCCNC(C)=O)c1ccc2ncnc(Nc3ccc(OCc4ccccn4)c(Cl)c3)c2c1
(Q) Order by IC50, ascending. The response must list the labels following the requested ordering.
(A) c, a, b

The reported numbers originate from patent US8202879B2.
